// data source = the supplement of paper PMC10567573

B1: SETD8 (parent)
chain: GKQAPRKKAQGKTQQNRKLTDFYP

Variants of: B1
Experiment: protein stability index of a GFP-peptide fusion (GPS, HEK-293T) (PSI 1-6); higher = more stable;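 also: lentivirally expressed fusions sorted by FACS into six bins by GFP to DsRed ratio, PSI derived from sequencing read proportions per bin multiplied by bin number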
Conditions: c terminus: a fixed tail appended
assay-metric: protein stability index

T20Q    4.11
K2R    3.07
K8R    2.75
Q14P    4.36
K18S    3.51
P5K    3.35
K8S    3.55
A4N    3.23
P5L    2.74
P5F    2.95
Q14M    3.64
L19Q    3.84
Q10R    3.16
G11I    3.73
Q10I    2.86
P24I    3.44
D21C    4.41
F22M    4.7
A9I    3.08
A4P    2.63
Y23V    4.05
K18L    2.56
G11A    4.17
Q10F    3.28
Q3T    2.93
Y23C    4.28
P24D    4.33
N16E    3.65
A4I    3.09
Q14H    1.57
K18M    2.06
K12E    3.66
K18A    3.15
G1N    2.88
K2G    2.67
G1T    3.2
R6K    3.44
G11S    3.55
P24K    3.09
K8T    2.77
R17H    2.88
T20F    3.06
F22Q    4.17
R6D    3.67
L19E    4.62
P24H    4.02
